- Study target: human glucagon receptor (human, UniProt P47871 26-477)
- Sequence (P47871 26-477): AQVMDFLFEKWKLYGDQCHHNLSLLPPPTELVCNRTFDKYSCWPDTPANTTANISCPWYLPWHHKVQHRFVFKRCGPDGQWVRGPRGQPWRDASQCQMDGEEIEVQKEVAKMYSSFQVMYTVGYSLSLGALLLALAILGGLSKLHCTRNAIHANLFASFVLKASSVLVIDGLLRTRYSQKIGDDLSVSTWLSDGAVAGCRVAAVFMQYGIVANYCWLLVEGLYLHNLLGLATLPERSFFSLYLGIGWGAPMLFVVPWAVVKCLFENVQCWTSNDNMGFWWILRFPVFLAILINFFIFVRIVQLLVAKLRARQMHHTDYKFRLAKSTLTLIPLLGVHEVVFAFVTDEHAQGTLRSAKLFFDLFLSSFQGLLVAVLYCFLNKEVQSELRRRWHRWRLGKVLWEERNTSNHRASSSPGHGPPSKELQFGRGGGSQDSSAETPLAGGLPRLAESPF
- Procedure details: cell-based or functional assay
Numbered stars: 1 amine (or outer) side, 2 acyl side, 3 side chain; on linkers, the order of the positions; unused ones are H or OH. Square brackets hold non-standard residues; d marks the D form. Side chains are listed from the residue outwards. Ends that are not written are not given here. γGlu = O=C(O)[C@H](CCC(=O)[*:2])N[*:1]; X70 = not defined here; x53 = not defined here; Aib = CC(C)(N)C(=O)O
Recorded metric: EC50 hGlucagon-R (cAMP) (pM)
Please respond with the number in pM and leave the unit unwritten.

In plain terms, HXQGTFTSDLSKQKESKAAQDFIEWLKAGGPSSGAPPPS (dSer at 2; K(GABA-x53) at 14; C-terminal NH2) [SEQ ID NO: 7] has a documented EC50 hGlucagon-R (cAMP) of 20.7

In plain terms, HXQGTFTSDLSKQKDEKAAQDFIEWLKAGGPSSGAPPPS (dSer at 2; K(γE-x53) at 14; C-terminal NH2) [SEQ ID NO: 22] has a documented EC50 hGlucagon-R (cAMP) of 2.4

In plain terms, HXQGTFTSDLSKQKDKRRAQLFIEWLKAXGPSSGAPPPS (Aib at 2; K(γE-x70) at 14; dAla at 29; C-terminal NH2) [SEQ ID NO: 210] has a documented EC50 hGlucagon-R (cAMP) of 3

In plain terms, HXQGTFTSDLSKQKESRRAQDFIEWLKNAGPSSGAPPPS (dSer at 2; K(γE-x53) at 14; C-terminal NH2) [SEQ ID NO: 95] has a documented EC50 hGlucagon-R (cAMP) of 9.2

In plain terms, HXQGTFTSDLSKQKESRRAQDFIEWLKNGGPSSGAPPPSK (dSer at 2; K(x53) at 14; C-terminal NH2) [SEQ ID NO: 112] has a documented EC50 hGlucagon-R (cAMP) of 21.1

In plain terms, HXQGTFTSDLSKQKDSRRAQDFIEWLKNGGPSSGAPPPS (dSer at 2; K(γE-x53) at 14; C-terminal NH2) [SEQ ID NO: 97] has a documented EC50 hGlucagon-R (cAMP) of 1

In plain terms, HXQGTFTSDLSKQKESRRAQDFIEWLKNGGPSSGAPPPSK (dSer at 2; K(γE-x53) at 14; C-terminal NH2) [SEQ ID NO: 111] has a documented EC50 hGlucagon-R (cAMP) of 2.5

In plain terms, HXQGTFTSDLSKQKESRAAQDFIEWLKAGGPSSGAPPPS (dSer at 2; K(γE-γE-x70) at 14; C-terminal NH2) [SEQ ID NO: 52] has a documented EC50 hGlucagon-R (cAMP) of 2

In plain terms, H[Aib]QGTFTSDLSKQK([γGlu-x53])DSQAAQDFIEWLKAGGPSSGAPPPS-NH2 (reading uncertain) [SEQ ID NO: 155] has a documented EC50 hGlucagon-R (cAMP) of 25.1

In plain terms, H[Aib]QGTFTSDLSKQK([γGlu-X70])DEQRAKEFIEWLKSGGPSSGAPPPS-NH2 (reading uncertain) [SEQ ID NO: 174] has a documented EC50 hGlucagon-R (cAMP) of 1.9

In plain terms, HXQGTFTSDLSKQKDERRAKDFIEWLKNGGPSSGAPPPS (dSer at 2; K(γE-x53) at 14; C-terminal NH2) [SEQ ID NO: 87] has a documented EC50 hGlucagon-R (cAMP) of 1.3

In plain terms, HXQGTFTSDLSKQKESEAAQLFIEWLKAGGPSSGAPPPS (dSer at 2; K(γE-x53) at 14; C-terminal NH2) [SEQ ID NO: 21] has a documented EC50 hGlucagon-R (cAMP) of 144
